experiment: Cytotoxicity against human BGC823 cells assessed as cell viability after 72 hrs by CCK8 assay; format: functional, cell-based; details: BGC-823, 72 h
measured.property: pIC50
pIC50 (log units): -log10 of the concentration in mol/L.

-- ask Please supply the value of reported pIC50 for the item "C[C@]1(CO)CCC[C@@]2(C)[C@H]1[C@H](OC(=O)c1ccc([N+](=O)[O-])cc1)C=C1C(=O)OC[C@@]12O"
-- reply 5.56

-- ask Please supply the value of reported pIC50 for the item "C[C@]1(COC(=O)c2ccc([N+](=O)[O-])cc2)CCC[C@@]2(C)[C@H]1[C@H](O)C=C1C(=O)OC[C@@]12O"
-- reply 5.63

-- ask Please supply the value of reported pIC50 for the item "CC(/C=C/C(=O)NO)=C\[C@@H](C)C(=O)c1ccc(N(C)C)cc1"
-- reply 7.10

====

system: K562; test: Cytotoxicity against human K562 cells assessed as cell viability after 72 hrs by CCK8 assay; format: functional, cell-based; conditions: K562, 72 h
measured.property: IC50 (µM)
Give the number; µM is assumed, so skip it.

-- ask Please supply the value of reported IC50 for the item "C[C@]1(COC(=O)c2ccc([N+](=O)[O-])cc2)CCC[C@@]2(C)[C@H]1[C@H](O)C=C1C(=O)OC[C@@]12O"
-- reply 4.33

-- ask Please supply the value of reported IC50 for the item CC(/C=C/C(=O)NO)=C\[C@@H](C)C(=O)c1ccc(N(C)C)cc1 [TRICHOSTATIN]
-- reply 0.16

-- ask Please supply the value of reported IC50 for the item "C[C@]1(CO)CCC[C@@]2(C)[C@H]1[C@H](OC(=O)c1ccc([N+](=O)[O-])cc1)C=C1C(=O)OC[C@@]12O"
-- reply 4.76

====

assay: Antiviral activity against Influenza A virus A/Hong Kong/8/68 H3N2 infected in MDCK cells assessed as reduction in virus-induced cytopathic effect after 3 days by CCK8 assay; assay type: functional, cell-based, Influenza A virus (A/Hong Kong/8/1968([…])); conditions: 72 h
measured.property: pIC50
pIC50 (log units): -log10 of the concentration in mol/L.

-- ask Please supply the value of reported pIC50 for the item "C[C@]1(CO)CCC[C@@]2(C)[C@H]1[C@H](OC(=O)c1ccc([N+](=O)[O-])cc1)C=C1C(=O)OC[C@@]12O"
-- reply 4.30

-- ask Please supply the value of reported pIC50 for the item "C[C@]1(COC(=O)c2ccc([N+](=O)[O-])cc2)CCC[C@@]2(C)[C@H]1[C@H](O)C=C1C(=O)OC[C@@]12O"
-- reply 4.77

-- ask Please supply the value of reported pIC50 for the item "CC(/C=C/C(=O)NO)=C\[C@@H](C)C(=O)c1ccc(N(C)C)cc1"
-- reply 8.10

====

test system: Enterovirus; assay: Antiviral activity against EV71 infected in african green monkey Vero cells assessed as reduction in virus-induced cytopathic effect after 72 to 96 hrs by CCK8 assay; type: functional, organism-based; details: Enterovirus, 71, Vero
Answer each item with its documented pIC50.
pIC50 (log units): -log10 of the concentration in mol/L.

-- ask Write down measured pIC50 (Enterovirus) for this molecule. "CC(/C=C/C(=O)NO)=C\[C@@H](C)C(=O)c1ccc(N(C)C)cc1"
-- reply 6.22

-- ask Write down measured pIC50 (Enterovirus) for this molecule. "C[C@]1(COC(=O)c2ccc([N+](=O)[O-])cc2)CCC[C@@]2(C)[C@H]1[C@H](O)C=C1C(=O)OC[C@@]12O"
-- reply 5.03

-- ask Write down measured pIC50 (Enterovirus) for this molecule. "C[C@]1(CO)CCC[C@@]2(C)[C@H]1[C@H](OC(=O)c1ccc([N+](=O)[O-])cc1)C=C1C(=O)OC[C@@]12O"
-- reply 4.30
